Sourced from the supplement of paper PMC10065799

TARGET: Grb2 SH2 (UniProt P62993)
PROTOCOL_NOTES: SH2 binding enrichment of the phosphorylated peptide, bacterial display (enrichment ratio); higher = better substrate or ligand; peptides without Tyr show the background;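 further: peptide library displayed on the E. coli surface as eCPX fusions, selected cells deep-sequenced, score is each peptide's frequency after selection divided by its frequency in the input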
EXPERIMENTAL_ENDPOINT: SH2 binding enrichment

Worked set:
Requested read-out: SH2 binding enrichment. Entry: SKEPYYVRCIK [MYO1D_Y586]
0.748

Requested read-out: SH2 binding enrichment. Entry: ADPQEYIPLPA [JAKtide_2014]
1

Requested read-out: SH2 binding enrichment. Entry: KQMEQYMSFHK [HCN1_Y417_V414M]
0.822

Requested read-out: SH2 binding enrichment. Entry: EKMWSYMKSAE [GRIA3_Y705]
0.972

Requested read-out: SH2 binding enrichment. Entry: EWQQIYTYDSG [JUP_Y20_T19I]
0.885

a: GSTLSYGRDGR [MATR3_Y158_P154S]
b: QFFQGYFNNNF [ZNF236_Y644_S643G]
Rank a against b by their SH2 binding enrichment values and give the higher one. Mark your selection by writing its label.
b
(b: 1.63, a: 0.793)

1: QNTGVYFDLFG [PTPN11_Y62_D61V_YF]
2: IEDPYYGNDSD [ACP1_Y133]
Rank 1 against 2 by their SH2 binding enrichment values and give the higher one. Mark your selection by writing its label.
2
(2: 1.07, 1: 0.731)

I: SVKVYYKKCWF [EPHA7_Y202_S207F]
II: KSIQLYDTPYE [SHB_Y297_G293S]
Rank I against II by their SH2 binding enrichment values and give the higher one. Mark your selection by writing its label.
II
(II: 1.02, I: 0.712)
